# Test system: ESCHERICHIA COLI H560
# Method: In vitro antibacterial activity (MIC), agar dilution
# Assay type: cell-based
# Study Conditions: E. coli H560; BHI agar, 35-37 °C, 20-24 h
Some compounds, each annotated with its measured minimum inhibitory concentration (MIC).
Assay Readout: minimum inhibitory concentration (MIC)

• CC[C@H]1OC(=O)[C@H](C)C[C@H](C)[C@@H](O[C@@H]2O[C@H](C)C[C@H](N(C)C)[C@H]2O)[C@](C)(OC)C[C@@H](C)C(=O)[C@H](C)[C@@H](O)[C@]1(C)O [Ex. 1] = > 100
• CC[C@H]1OC(=O)[C@H](C)C[C@H](C)[C@@H](O[C@@H]2O[C@H](C)C[C@H](N(C)C)[C@H]2O)[C@](C)(OC)C[C@@H](C)C(=O)[C@H](C)[C@H]2N(CCCCc3ccccc3)C(=O)O[C@]12C [Ex. 4] = 25
• CC[C@H]1OC(=O)[C@H](C)C[C@H](C)[C@@H](O[C@@H]2O[C@H](C)C[C@H](N(C)C)[C@H]2O)[C@](C)(OC)C[C@@H](C)C(=NOCOCCOC)[C@H](C)[C@@H](O)[C@]1(C)O [Ex. 8] = 25

====

# Test system: ESCHERICHIA COLI DC-2
# Method: In vitro antibacterial activity (MIC), agar dilution
# Assay type: cell-based
# Study Conditions: E. coli DC-2; BHI agar, 35-37 °C, 20-24 h
Consider the following compounds and their measured minimum inhibitory concentration (MIC) readings.
Assay Readout: minimum inhibitory concentration (MIC)

- CC[C@H]1OC(=O)[C@H](C)C[C@H](C)[C@@H](O[C@@H]2O[C@H](C)C[C@H](N(C)C)[C@H]2O)[C@](C)(OC)C[C@@H](C)C(=O)[C@H](C)[C@H]2N(CCc3ccc(Oc4ccccc4)cc3)C(=O)O[C@]12C: 12.5
- CC[C@H]1OC(=O)[C@H](C)C[C@H](C)[C@@H](O[C@@H]2O[C@H](C)C[C@H](N(C)C)[C@H]2O)[C@](C)(OC)C[C@@H](C)C(=O)[C@H](C)[C@H]2N(CCCCc3ccccc3)C(=O)O[C@]12C: 50
- CC[C@H]1OC(=O)[C@H](C)C[C@H](C)[C@@H](O[C@@H]2O[C@H](C)C[C@H](N(C)C)[C@H]2O)[C@](C)(OC)C[C@@H](C)C(=NOCOCCOC)[C@H](C)[C@@H](O)[C@]1(C)O: 100
- CC[C@H]1OC(=O)[C@H](C)C[C@H](C)[C@@H](O[C@@H]2O[C@H](C)C[C@H](N(C)C)[C@H]2O)[C@](C)(OC)C[C@@H](C)C(=NOC)[C@H](C)[C@@H](O)[C@]1(C)O: 0.78

====

# System: M[…] ATCC 9341
# Method: In vitro antibacterial activity (MIC), agar dilution
# Type: cell-based, Micrococcus luteus
# Study Conditions: M. luteus ATCC 9341; BHI agar, 35-37 °C, 20-24 h
Assay Readout: minimum inhibitory concentration (MIC)

• CC[C@H]1OC(=O)[C@H](C)C[C@H](C)[C@@H](O[C@@H]2O[C@H](C)C[C@H](N(C)C)[C@H]2O)[C@](C)(OC)C[C@@H](C)C(=O)[C@H](C)[C@@H](O)[C@]1(C)O [Ex. 1] = 3.1
• CC[C@H]1OC(=O)[C@H](C)[C@@H](O[C@H]2C[C@@](C)(OC)[C@@H](O)[C@H](C)O2)[C@H](C)[C@@H](O[C@@H]2O[C@H](C)C[C@H](N(C)C)[C@H]2O)[C@](C)(O)C[C@@H](C)C(=O)[C@H](C)[C@@H](O)[C@]1(C)O [Ery A, Erythromycin A, reference compound] = 0.02
• CC[C@H]1OC(=O)[C@H](C)C[C@H](C)[C@@H](O[C@@H]2O[C@H](C)C[C@H](N(C)C)[C@H]2O)[C@](C)(OC)C[C@@H](C)C(=O)[C@H](C)[C@H]2OC(=O)O[C@@]21C [Ex. 3] = 0.78
• CC[C@H]1OC(=O)[C@H](C)C[C@H](C)[C@@H](O[C@@H]2O[C@H](C)C[C@H](N(C)C)[C@H]2O)[C@](C)(OC)C[C@@H](C)C(=O)[C@H](C)[C@H]2N(CCc3ccc(Oc4ccccc4)cc3)C(=O)O[C@]12C [Ex. 5] = 3.1

====

# Test system: STAPHYLOCOCCUS EPIDERMIDIS 3519
# Method: In vitro antibacterial activity (MIC), agar dilution
# Format: cell-based
# Study Conditions: S. epidermidis 3519; BHI agar, 35-37 °C, 20-24 h
Assay Readout: minimum inhibitory concentration (MIC)

- CC[C@H]1OC(=O)[C@H](C)C[C@H](C)[C@@H](O[C@@H]2O[C@H](C)C[C@H](N(C)C)[C@H]2O)[C@](C)(OC)C[C@@H](C)C(=O)[C@H](C)[C@H]2N(CCc3ccc(Oc4ccccc4)cc3)C(=O)O[C@]12C [Ex. 5]: 12.5
- CC[C@H]1OC(=O)[C@H](C)C[C@H](C)[C@@H](O[C@@H]2O[C@H](C)C[C@H](N(C)C)[C@H]2O)[C@](C)(OC)C[C@@H](C)C(=NOCOCCOC)[C@H](C)[C@@H](O)[C@]1(C)O [Ex. 8]: 0.1
- CC[C@H]1OC(=O)[C@H](C)C[C@H](C)[C@@H](O[C@@H]2O[C@H](C)C[C@H](N(C)C)[C@H]2O)[C@](C)(OC)C[C@@H](C)C(=O)[C@H](C)[C@H]2OC(=O)O[C@@]21C [Ex. 3]: 6.2
- CC[C@H]1OC(=O)[C@H](C)C[C@H](C)[C@@H](O[C@@H]2O[C@H](C)C[C@H](N(C)C)[C@H]2O)[C@](C)(OC)C[C@@H](C)C(=O)[C@H](C)[C@@H](O)[C@]1(C)O [Ex. 1]: 50
- CC[C@H]1OC(=O)[C@H](C)C[C@H](C)[C@@H](O[C@@H]2O[C@H](C)C[C@H](N(C)C)[C@H]2O)[C@](C)(OC)C[C@@H](C)C(=NO)[C@H](C)[C@@H](O)[C@]1(C)O [Ex. 2]: 12.5
- CC[C@H]1OC(=O)[C@H](C)C[C@H](C)[C@@H](O[C@@H]2O[C@H](C)C[C@H](N(C)C)[C@H]2O)[C@](C)(OC)C[C@@H](C)C(=NOC)[C@H](C)[C@@H](O)[C@]1(C)O [Ex. 6]: 12.5
- CC[C@H]1OC(=O)[C@H](C)C[C@H](C)[C@@H](O[C@@H]2O[C@H](C)C[C@H](N(C)C)[C@H]2O)[C@](C)(OC)C[C@@H](C)C(=O)[C@H](C)[C@H]2N(CCCCc3ccccc3)C(=O)O[C@]12C [Ex. 4]: 1.56

====

Reported minimum inhibitory concentration (MIC) by item:
# System: PSEUDOMONAS AERUGINOSA DPHD-2862
# Method: In vitro antibacterial activity (MIC), agar dilution
# Format: cell-based
# Study Conditions: P. aeruginosa DPHD-2862; BHI agar, 35-37 °C, 20-24 h
Assay Readout: minimum inhibitory concentration (MIC)

• CC[C@H]1OC(=O)[C@H](C)C[C@H](C)[C@@H](O[C@@H]2O[C@H](C)C[C@H](N(C)C)[C@H]2O)[C@](C)(OC)C[C@@H](C)C(=NO)[C@H](C)[C@@H](O)[C@]1(C)O = > 100
• CC[C@H]1OC(=O)[C@H](C)C[C@H](C)[C@@H](O[C@@H]2O[C@H](C)C[C@H](N(C)C)[C@H]2O)[C@](C)(OC)C[C@@H](C)C(=O)[C@H](C)[C@H]2N(CCCCc3ccccc3)C(=O)O[C@]12C = > 100
• CC[C@H]1OC(=O)[C@H](C)C[C@H](C)[C@@H](O[C@@H]2O[C@H](C)C[C@H](N(C)C)[C@H]2O)[C@](C)(OC)C[C@@H](C)C(=NOC)[C@H](C)[C@@H](O)[C@]1(C)O = > 100
• CC[C@H]1OC(=O)[C@H](C)C[C@H](C)[C@@H](O[C@@H]2O[C@H](C)C[C@H](N(C)C)[C@H]2O)[C@](C)(OC)C[C@@H](C)C(=O)[C@H](C)[C@@H](O)[C@]1(C)O = > 100
• CC[C@H]1OC(=O)[C@H](C)C[C@H](C)[C@@H](O[C@@H]2O[C@H](C)C[C@H](N(C)C)[C@H]2O)[C@](C)(OC)C[C@@H](C)C(=O)[C@H](C)[C@H]2OC(=O)O[C@@]21C = > 100
• CC[C@H]1OC(=O)[C@H](C)C[C@H](C)[C@@H](O[C@@H]2O[C@H](C)C[C@H](N(C)C)[C@H]2O)[C@](C)(OC)C[C@@H](C)C(=NOCOCCOC)[C@H](C)[C@@H](O)[C@]1(C)O = 100
• CC[C@H]1OC(=O)[C@H](C)[C@@H](O[C@H]2C[C@@](C)(OC)[C@@H](O)[C@H](C)O2)[C@H](C)[C@@H](O[C@@H]2O[C@H](C)C[C@H](N(C)C)[C@H]2O)[C@](C)(O)C[C@@H](C)C(=O)[C@H](C)[C@@H](O)[C@]1(C)O [Ery A, Erythromycin A, reference compound] = 100
• CC[C@H]1OC(=O)[C@H](C)C[C@H](C)[C@@H](O[C@@H]2O[C@H](C)C[C@H](N(C)C)[C@H]2O)[C@](C)(OC)C[C@@H](C)C(=O)[C@H](C)[C@H]2N(CCc3ccc(Oc4ccccc4)cc3)C(=O)O[C@]12C = > 100

The values you see were collected from patent US5747466A.
